Kindly state Kd for each of the entries shown.
molecular target: T1, human ALK-1 (full-length, cell surface) (human, UniProt P37023 22-503); assay: FACS on 293 cells overexpressing human ALK-1
T1 construct: whole, on cells; also called cell surface human ALK-1; receptor ALK-1
Please reply with the bare figure in nM and do not write the unit itself.

Query: What value of measured Kd is listed for 4.24.1 (antibody, human IgG2, V domains shown, Human IgG2 kappa antibody from a hybridoma) VH: QVQLQESGPGLVKPSQTLSLTCTVSGGSISSNDYYWNWIRQHPGKGLEWIGYIYYSGSTYYNPSLKSRVTISVDTSKNQFSLKLSSVTAADTAVYYCARESTDGMDVWGQGTTVTVSS VL: ENVLTQSPGTLSLSPGERATLSCRASQSVSSNYLAWYQQKPGQAPRLLIYGASSGATGIPDRFSGSGSGTDFTLTISRLEPEDFAVYYCQHYGSSPITFGQGTRLEIK ?
Result: 7.6

Query: Next: 1.162.1 (antibody, human IgG2, V domains shown, Human IgG2 kappa antibody from a hybridoma) VH: QVQLQESGPGLVKPSQTLSLICTVSGGSISSGEYYWSWIRQHPGKGLEWIGYIYYSGSTYYNPSLKSRLTISVDTSKNQFSLKLSSVTAADTAVYYCAREGIGAFDIWGQGTMVTVSS VL: EIVLTQSPGTLSLSPGERATLSCRASQSVSSSYLAWYQQKPGQAPRLLIYGASSRATGIPDRFSGSGSGTDFTLTIIRLDPEDFAVYYCQRYGSSPITFGQGTRLEIK
Result: 5.6

Query: Try this binder too: 4.72.1 (antibody, human IgG2, V domains shown, Human IgG2 kappa antibody from a hybridoma) VH: QVQLQESGPGLVKPSQTLSLTCTVSGGSISSGEYYWSWIRQHPGKGLEWIGYIFYSGSTYYNPSLKSRVTISLDTSKNQFSLKLSSVTAADTAVYYCARESTDGMDVWGQGTTVTVSS VL: EIVLTQSPGTLSLSPGERATLSCRASQSVSSSYLAWYQRKPGQAPRLLIYGVSSRATGIPDRFSGSGSGTDFTLTISRLEPEDFAVYYCQQYGSSMITFGQGTRLEIK
Result: 6.4

Query: Would you mind doing 4.58.1 (antibody, human IgG2, V domains shown, Human IgG2 kappa antibody from a hybridoma) VH: QVQLQESGPGLVKPSQTLSLTCTVSGGSISSGDYYWNWIRQHPGKGLEWIGYIYYSGSTYYNPSLKSRVTISVATSKNQFSLKLSSVTAADTAVYYCAREATEGFDYWGQGTLVTVSS VL: EIVLTQSPGTLSLSPGERATLSCRASQSVSTTYLAWYQQKPGQAPRLLIYGASSRATGIPDRFSGSGSGTDFTLTISRLEPEDFALYYCQHYGTSSITFGQGTRLEIK as well?
Result: 14
